Biological target: Cytochrome P450 2C19 (Homo sapiens, UniProt P33261)
Sequence (P33261 whole entry): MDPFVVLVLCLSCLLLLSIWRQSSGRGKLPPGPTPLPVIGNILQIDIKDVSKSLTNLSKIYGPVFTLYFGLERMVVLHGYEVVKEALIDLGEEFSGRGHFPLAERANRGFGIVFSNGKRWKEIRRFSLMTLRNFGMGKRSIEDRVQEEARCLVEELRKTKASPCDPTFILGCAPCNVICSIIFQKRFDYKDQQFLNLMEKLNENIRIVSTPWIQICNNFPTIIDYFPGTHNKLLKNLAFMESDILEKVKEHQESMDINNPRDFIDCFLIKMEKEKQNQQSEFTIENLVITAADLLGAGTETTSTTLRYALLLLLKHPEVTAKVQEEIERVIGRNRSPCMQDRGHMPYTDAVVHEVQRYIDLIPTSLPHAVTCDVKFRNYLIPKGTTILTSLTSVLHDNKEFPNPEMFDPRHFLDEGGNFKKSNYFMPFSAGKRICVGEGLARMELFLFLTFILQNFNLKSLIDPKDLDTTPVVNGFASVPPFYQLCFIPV
Assay: Cytochrome panel assay with activity outcomes. Panel member name: p450-cyp2c19 Compounds with AC50 equal or less than 10 uM are considered active
Format: functional
Conditions: read-out: AC50
Exercise: for every item that follows, state its recorded AC50.

COc1ccccc1CNc1nc(-c2c(C)noc2C)nc2ccccc12    1580 nM (inconclusive)

Please state AC50 for every molecule in the list that follows.
1. O=C(N/C(=C\c1cccs1)C(=O)N1CCCCCC1)c1ccccc1
2. N=C(N)S[C@H]1c2ccccc2-c2cc([N+](=O)[O-])ccc21

1. 5010 nM (inconclusive)
2. 631 nM (inconclusive)

----------
Molecular target: Replicative DNA helicase DnaB (Mycobacterium tuberculosis)
Sequence (P9WMR3 1-399, added parts left off): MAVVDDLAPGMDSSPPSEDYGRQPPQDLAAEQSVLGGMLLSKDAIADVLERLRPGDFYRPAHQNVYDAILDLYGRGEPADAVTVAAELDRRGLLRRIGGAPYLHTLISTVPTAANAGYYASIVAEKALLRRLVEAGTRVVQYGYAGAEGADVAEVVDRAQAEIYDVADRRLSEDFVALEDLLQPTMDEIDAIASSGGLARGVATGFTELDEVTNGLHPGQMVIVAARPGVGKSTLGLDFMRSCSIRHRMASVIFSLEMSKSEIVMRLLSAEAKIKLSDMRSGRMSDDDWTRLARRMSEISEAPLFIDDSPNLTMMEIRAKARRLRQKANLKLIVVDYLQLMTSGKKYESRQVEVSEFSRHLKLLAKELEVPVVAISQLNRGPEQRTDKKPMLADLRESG
Test: DnaB intein splicing inhibitors, dose response, biochemical, cell-free fluorescence (AID 449749)
Type: functional
Active and inactive are the calls of the source.
Return exactly one item of active, inactive

The examples below pair each entry with its known result.
O=c1[nH]c(CCl)nc2cc(-c3ccc(F)cc3)sc12    active
OCC[n+]1c2ccccc2nc2ccc(N3CCOCC3)cc21    inactive
Cc1ccc(NC(=O)C(CC(C)C)NC(N)=O)cc1 (stereo not given)    inactive
COC(=O)c1c(C)oc2ccc(N(C(=O)c3ccncc3)S(=O)(=O)c3ccc4ccccc4c3)cc12    active

Then this compound:
Which outcome was assigned to CC(C)c1nnc(NC(=O)CCS(=O)(=O)c2nc(-c3cccs3)cc(C(F)(F)F)n2)s1 in this test?
inactive

----------
Biological target: UniProt P9WHJ3
Assay: Fluorescence Cell-Free Homogeneous Dose Retest to Identify Inhibitors of RecA-Intein Splicing Activity. [Related pubchem assays (depositor defined):AID2097, AID2223, AID489010, AID492950]
Assay type: functional
Active and inactive are the calls of the source.
Exercise: for every item that follows, state its recorded EC50.

Record excerpt, results attached:
O=c1[nH]c(CCl)nc2cc(-c3ccc(F)cc3)sc12    5.66 µM (active)
CCOC(=O)C(CC)Sc1ncnc2c1nnn2-c1ccc(F)cc1 (configuration not stated)    26.7 µM (active)
O=C1C(Cl)=C(N2CCOCC2)C(=O)N1c1ccccc1F    2.47 µM (active)
OCC[n+]1c2ccccc2nc2ccc(N3CCOCC3)cc21    > 120 µM (inconclusive)
CCCCn1[nH]c(-c2ccccc2)cc1=O    1.05 µM (active)

Please state EC50 for every compound in the list that follows.
1. C=C[S+]([O-])c1sc(Cl)c(N2CCOCC2)c1[N+](=O)[O-] (configuration not stated)
2. CC(C)c1nnc(NC(=O)CCS(=O)(=O)c2nc(-c3cccs3)cc(C(F)(F)F)n2)s1

["18.8 µM (active)", "30.4 µM (inconclusive)"]

Cited source: ChEMBL document CHEMBL1201862
